- procedure-summary: Human HepG2 cell viability assay in 384 well format
- Type: toxicity, cell-based
- Set-up: dose 125 nL, time 70.5 hour; concentration not given beside the values
- condition-context: HepG2 cells, read-out: Inhibition
Parameter cytotoxicity at 70.5 h: see the listing below.

Observe how each entry below is paired with its result.
# lookup: cytotoxicity at 70.5 h of COCCN1CCN(c2ncnc3nc(C)cc(C)c23)CC1
-7.61%

Could you share which cytotoxicity at 70.5 h value was measured for CC(=O)NCC(=O)Nc1cc(C)n(-c2ccc(Cl)cc2Cl)n1 ?
-0.82%

What does the record list as cytotoxicity at 70.5 h for Cc1cnn(CC(C)NCc2ccc(-n3cccn3)cc2)c1 (stereo not drawn) ?
30.2%

Which cytotoxicity at 70.5 h value is on record for COC(=O)CNC(=O)c1nc(-c2ccccc2OC)c2cnccn12 ?
-11.4%

Entry CCOC(=O)c1sc(NC(=O)COC)c(C#N)c1C has what cytotoxicity at 70.5 h?
28.6%

What measured cytotoxicity at 70.5 h goes with O=C(c1nc2c(o1)CN(CC1CCC1)C2)N1CCCC1 ?
10.5%

Continue with the next compound.
Any idea what cytotoxicity at 70.5 h was measured for COCCNc1ncc(-c2cc(C)no2)c(-c2ccco2)n1 ?
8.77%

====

- procedure-summary: Human HepG2 cell viability assay in 384 well format
- Type: toxicity, cell-based
- Set-up: dose 125 nL, time 70.5 hour; concentration not given beside the values
- condition-context: HepG2 cells, read-out: Inhibition
recorded-endpoint: cytotoxicity at 70.5 h

// query cytotoxicity at 70.5 h value for entry COC(C)(C)C(=O)N1CCC(c2cc(CN(C)C)n(C)n2)CC1
-10.8%

Please report the recorded cytotoxicity at 70.5 h for COc1ccc(OC)c(-c2nc(CN(C)Cc3nonc3C)c(C)o2)c1 .
26.4%

Others:
Quick one: cytotoxicity at 70.5 h for CNC(=O)[C@H]1C[C@@H]2CN(Cc3cccnc3OC)C[C@@H]2N1C(C)=O ?
-9.57%

====

- procedure-summary: Human HepG2 cell viability assay in 384 well format
- Assay type: toxicity, cell-based
- Parameters: dose 125 nL, time 70.5 hour; concentration not given beside the values
- condition-context: HepG2 cells, read-out: Inhibition
recorded-endpoint: cytotoxicity at 70.5 h (%)
Give just the number in %; leave the unit off.

These recorded examples may help you get a feel for the data.
// query cytotoxicity at 70.5 h value for entry C=C(C)CN(CC)C(=O)c1cc(F)ccc1NS(C)(=O)=O
-0.0565

Give its cytotoxicity at 70.5 h value. Item: CCOC(=O)CNC(=O)NCc1cccn1Cc1ccccc1F
-2.5

What does the record list as cytotoxicity at 70.5 h for O=c1[nH]c(-c2ccccn2)nc2c1CCN(S(=O)(=O)N1CCCC1)C2 ?
-3.27

Here is another molecule to look at.
cytotoxicity at 70.5 h lookup needed for COCC(=O)N1CCCC2(CCN(c3ccsc3)C2=O)C1 (centres undefined) , thanks.
32.8

====

- procedure-summary: Human HepG2 cell viability assay in 384 well format
- Type: toxicity, cell-based
- Set-up: dose 125 nL, time 70.5 hour; concentration not given beside the values
- condition-context: HepG2 cells, read-out: Inhibition
Quick reference for cytotoxicity at 70.5 h among some molecules
Numeric only. Scale: %

Here's what some known entries look like.
// lookup cytotoxicity at 70.5 h for CN1CCN(C(=O)c2cccn2C)c2ccccc2C1
-6.26

cytotoxicity at 70.5 h lookup needed for CC(C)(C)OC(=O)N1CCCN(Cc2ccon2)c2ccccc21 , thanks.
9.4

I am curious: what cytotoxicity at 70.5 h value has been reported for CN1CSC[C@H]1C(=O)N1CCN(Cc2cccc(F)c2)CC1 ?
8.84

If you can, please state the reported cytotoxicity at 70.5 h value of Cc1nc(C)c(C(=O)N2CCc3nnc(C4CCCN4C)n3CC2)s1 (stereo not given) .
-3.4

Entry under review: Cn1ccnc1SCCNC(=O)Cn1cnc2ccccc2c1=O . Reported cytotoxicity at 70.5 h?
1.77

Requested read-out: cytotoxicity at 70.5 h. Entry: CC[C@H](C)[C@H](NC(=O)Cn1ccc2ccc(F)cc21)C(=O)OC
-1.27

# input molecule: CC(CNC(=O)CCn1cncn1)N1CCc2ccccc21 (stereo not given) ; wanted: its cytotoxicity at 70.5 h
-1.72

For the molecule CCc1cccc(OC2CN(C(=O)[C@@H](N)[C@@H](C)O)C2)c1 , what cytotoxicity at 70.5 h is on record?
-8.46

// cytotoxicity at 70.5 h lookup, key: Cc1cc(C)n(CC(=O)N2CCCC(c3cc4cccnc4[nH]3)C2)n1 (stereo not given)
-3.24

Fill in: cytotoxicity at 70.5 h of COc1ccc(CN2C[C@@H](OCc3csc(C)n3)[C@H]3COC[C@H]32)cc1 is ___
-3.55

Continuing:
Given CCNc1ccnc(NCC2CNCCO2)n1 (stereo not given) , state its recorded cytotoxicity at 70.5 h.
-3.23

What measured cytotoxicity at 70.5 h goes with CC(C)n1ccnc1CN1CCCC1c1cccc(-n2ccnc2)n1 (stereo not given) ?
-2.76

Entry CC(=O)NCC1CCN(C(=O)c2c[nH]c3cc(Cl)ccc23)CC1 has what cytotoxicity at 70.5 h?
-10.5

For the molecule O=C1CCCCCN1CCC(=O)N1CCCC(c2ccn[nH]2)C1 (stereo not given) , what cytotoxicity at 70.5 h is on record?
-9.01

What does the record list as cytotoxicity at 70.5 h for Cc1nccnc1C1CCN(C(=O)C(C)C)CC1 ?
-5.9

Attribution: ChEMBL document CHEMBL3507680
